Tested target: Regulator of G-protein signaling 16 (Homo sapiens) (UniProt O15492)
Procedure details: small molecules altering RGS protein interactions with GNAO1 – biochemical, multiplexed beads, flow cytometry, RGS4/7/8/16/19, primary screen (AID 1504);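 note: fluorescently labeled Galpha-o bound to GDP with aluminium fluoride binding biotinylated RGS beads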
Applied conditions: multiplexed bead flow cytometry, measured here: RGS16 interaction, at 10 µM
This is one part of the list.
Could you please classify the records by RGS16–Galpha-o binding response using these ranges: low = under 10%, medium = from 10% up to 200%, high = 200% and over

Worked set:
Textbook exercise: identify the category of the compound given here, `COc1cccc(C(=O)NCCSc2ccc(Br)cc2)c1` , according to its measured value.
medium

Textbook exercise: identify the category of the compound given here, CC(NC(=O)COC(=O)C1CCN(S(=O)(=O)c2ccccc2C(F)(F)F)CC1)c1ccccc1 (stereo unspecified) , according to its measured value.
high

Textbook exercise: identify the category of the compound given here, `Cc1ccccc1NC(=S)N(CCCN1CCOCC1)Cc1cccs1` , according to its measured value.
medium

New cases:
Textbook exercise: identify the category of the compound given here, `C/C(=C/C(=O)N1CCN(C)CC1)C(=O)O` , according to its measured value.
high

Textbook exercise: identify the category of the compound given here, `CC(C)Cc1nc(Nc2ccc(S(=O)(=O)N3CCCC3)cc2)c2nnn(Cc3ccccc3)c2n1` , according to its measured value.
high

Textbook exercise: identify the category of the compound given here, `O=C(CN1CCCCC1)N1c2ccccc2Sc2ccc(C(F)(F)F)cc21` , according to its measured value.
low

Textbook exercise: identify the category of the compound given here, `COc1cc(C(=O)Nc2cc(C(F)(F)F)ccc2N2CCOCC2)ccc1O` , according to its measured value.
low

Textbook exercise: identify the category of the compound given here, `C=CCn1c(Cn2nnc3ccccc32)nnc1SCC(=O)N/N=C/c1cc(Br)cc(OC)c1O` , according to its measured value.
low

Textbook exercise: identify the category of the compound given here, `CC(C)(C)NC(=O)c1cccc(NC(=O)Cc2ccc(Br)cc2)c1` , according to its measured value.
low

Textbook exercise: identify the category of the compound given here, `COC(=O)c1ccccc1OCC(=O)N1CCN(c2ccc(Cl)cc2)CC1` , according to its measured value.
high

Textbook exercise: identify the category of the compound given here, FC(F)Oc1ccccc1C1CC(c2ccc(Br)s2)Nc2ncnn21 (stereo unspecified) , according to its measured value.
high

Cited source for all entries: PubChem BioAssay
